# assay.system: T1, huCD33-R69 stably expressed on Jurkat cells (human, UniProt P20138 18-364)
# T1 construct: whole, on cells; >200,000 receptors per cell; also called CD33 WT; CD33^ARG69
# T1 sequence (P20138 18-364): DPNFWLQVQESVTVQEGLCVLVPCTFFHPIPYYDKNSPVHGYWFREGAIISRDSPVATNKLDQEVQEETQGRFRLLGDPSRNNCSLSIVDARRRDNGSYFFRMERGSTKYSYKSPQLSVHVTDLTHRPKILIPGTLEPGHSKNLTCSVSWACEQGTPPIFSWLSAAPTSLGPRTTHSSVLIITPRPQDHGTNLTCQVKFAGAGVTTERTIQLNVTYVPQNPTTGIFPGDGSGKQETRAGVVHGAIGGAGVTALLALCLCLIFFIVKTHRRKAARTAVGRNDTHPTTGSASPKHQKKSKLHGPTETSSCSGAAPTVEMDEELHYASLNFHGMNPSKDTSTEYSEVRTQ
# experimental.details: FACS on cells;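 also: fixed Jurkat cells bearing either CD33 variant, barcoded by dye, exposed to myc-tagged scFv periplasmic extracts, detected with anti-myc PE antibody and read by flow cytometry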
property.label: geometric mean MFI fold change over Jurkat parental

• Polypeptide No. 13 (scFv, V domains shown, scFv) VH: QVQLVQSGAEVKKPGASVKVSCKASGYSFTGYYMHWVRQAPGQGLEWMGWINPNSGGTYFAQNFQGRVTMTRDTSTSTVYMELSSLRSEDTAVYYCVKDRGDRVVTSYLDYWGQGTLVTVSS VL: DIQMTQSPSSLSASVGDRVTITCRASQGIRNWLAWYQQKPGKAPKLLIYAASSLQSGVPSRFSGSGSGTDFTLTISSLQPEDFATYYCQQSYRTPYTFGQGTKLEIKR = 10 to 30 fold
• Polypeptide No. 4 (scFv, V domains shown, scFv) VH: QVQLVQSGAEVKKPGASVKVSCKASGGTFSSYAISWVRQAPGQGLEWMGWINPNSGNTGYAQKFQGRVTMTRDTSTSTVYMELSSLRSEDTAVYYCAREHGDMDVWGQGTTVTVSS VL: EIVMTQSPATLSVSPGERATLSCRASQNINSDLAWYQQKPGQAPRLLIYGASTRATGIPARFSGSGSGTEFTLTISSLQSEDFAVYYCQQYDSLPFTFGPGTKVDIKR = > 30 fold
• Polypeptide No. 42 (scFv, V domains shown, scFv) VH: QVQLVQSGAEVKKPGASVKVSCKASGYTFTDYFMHWVRQAPGQGLEWMGWINPNSGNTGYAQKFQGRVTMTRDTSTSTVYMELSSLRSEDTAVYYCARLNDYGDYGGPATLDYWGQGTLVTVSS VL: DIQMTQSPSSLSASVGDRVTITCRASQGISNNLNWYQQKPGKAPKLLIYAASSLQSGVPSRFSGSGSGTDFTLTISSLQPEDFATYYCQQSYSTPPTFGQGTKLEIKR = < 2 fold
• Polypeptide No. 7 (scFv, V domains shown, scFv) VH: QVQLVQSGAEVKKPGASVKVSCKASGYTFTDYYMHWVRQAPGQGLEWMGWINPNSGGTNYAQKFQGRVTMTRDTSTSTVYMELSSLRSEDTAVYYCARDSRIAVAASSFDYWGQGTLVTVSS VL: DIQMTQSPSSLSASVGDRVTITCRASRGINNWLTWYQQKPGKAPKLLIYGASSLQSGVPSRFSGSGSGTDFTLTISSLQPEDFATYYCQQSYRIPYTFGQGTKLEIKR = 10 to 30 fold
• Polypeptide No. 1 (scFv, V domains shown, scFv) VH: QVQLVQSGAEVKKPGASVKVSCKASGYSFTGYYIHWVRQAPGQGLEWMGWINPNSGGTNYAQKFQGRVTMTRDTSTSTVYMELSSLRSEDTAVYYCARDQWDGYNSGYFDYWGQGTLVTVSS VL: DIQMTQSPSSLSASVGDRVTITCRASQTINDWLAWYQQKPGKAPKLLIYSASTLHSGVPSRFSGSGSGTDFTLTISSLQPEDFATYYCQQAYSTPWTFGQGTKVEIKR = > 30 fold

Consider the record given below.
Retrieve geometric mean MFI fold change over Jurkat parental measured for Polypeptide No. 39 (scFv, V domains shown, scFv) VH: EVQLLESGGGLVQPGGSLRLSCAASGFTFRNYGMGWVRQAPGKGLEWVSAISGSGGSTYYADSVKGRFTISRDNSKNTLYLQMNSLRAEDTAVYYCARVKFYGMDVWGQGTTVTVSS VL: DIQMTQSPSSLSASVGDRVTITCRASQGISNDLAWYQQKPGKAPKLLIYGASNLETGVPSRFSGSGSGTDFTLTISSLQPEDFATYYCQQANSFPFTFGPGTKVDIKR and print it. < 2 fold

Cited source: patent US20240101668A1
